Parameter pKi: see the listing below.
molecular target: Co(II)-substituted E. coli PDF (Escherichia coli, UniProt P0A6K3); construct: made in house; test: PDF assay coupled to formate dehydrogenase; format: biochemical
Sequence (P0A6K3 whole entry): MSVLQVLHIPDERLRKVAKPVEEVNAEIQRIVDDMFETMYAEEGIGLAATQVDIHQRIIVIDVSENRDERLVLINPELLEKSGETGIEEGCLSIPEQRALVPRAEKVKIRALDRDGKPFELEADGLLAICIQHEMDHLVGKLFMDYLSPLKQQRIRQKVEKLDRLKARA
API: returns pKi as number; meaning -log10 of concentration in mol/L.

Below: 3 molecules and their reported pKi.
[[record]]
molecule = "NCCCC[C@@H]1NC(=O)[C@@H](CN(O)C=O)CCCCCCCCCCCCCCNC1=O"
measurement_kind = "pKi"
meas_value = 7.44

[[record]]
molecule = "CC(C)(C)[C@@H]1NC(=O)[C@@H](CN(O)C=O)CCCCCCCCCCCCCCNC1=O"
measurement_kind = "pKi"
meas_value = 7.60

[[record]]
molecule = "CCCC[C@H](CN(O)C=O)C(=O)N[C@@H](CCCCN)C(=O)Nc1ccccc1 [Compound 10C, reference compound]"
measurement_kind = "pKi"
meas_value = 7.74


Below: the item to evaluate.
Query :: Give pKi; test system Co(II)-substituted E. coli PDF (Escherichia coli, UniProt P0A6K3); molecule `CC(=O)NCCCC[C@@H]1NC(=O)[C@@H](CN(O)C=O)CCCCCCCCCNC1=O`
Result :: 7.92
